In this section we review reported pIC50 values for a set of compounds.
# Assay system: human SARM1(50-724) (Homo sapiens)
# Sequence (Q6SZW1 50-724): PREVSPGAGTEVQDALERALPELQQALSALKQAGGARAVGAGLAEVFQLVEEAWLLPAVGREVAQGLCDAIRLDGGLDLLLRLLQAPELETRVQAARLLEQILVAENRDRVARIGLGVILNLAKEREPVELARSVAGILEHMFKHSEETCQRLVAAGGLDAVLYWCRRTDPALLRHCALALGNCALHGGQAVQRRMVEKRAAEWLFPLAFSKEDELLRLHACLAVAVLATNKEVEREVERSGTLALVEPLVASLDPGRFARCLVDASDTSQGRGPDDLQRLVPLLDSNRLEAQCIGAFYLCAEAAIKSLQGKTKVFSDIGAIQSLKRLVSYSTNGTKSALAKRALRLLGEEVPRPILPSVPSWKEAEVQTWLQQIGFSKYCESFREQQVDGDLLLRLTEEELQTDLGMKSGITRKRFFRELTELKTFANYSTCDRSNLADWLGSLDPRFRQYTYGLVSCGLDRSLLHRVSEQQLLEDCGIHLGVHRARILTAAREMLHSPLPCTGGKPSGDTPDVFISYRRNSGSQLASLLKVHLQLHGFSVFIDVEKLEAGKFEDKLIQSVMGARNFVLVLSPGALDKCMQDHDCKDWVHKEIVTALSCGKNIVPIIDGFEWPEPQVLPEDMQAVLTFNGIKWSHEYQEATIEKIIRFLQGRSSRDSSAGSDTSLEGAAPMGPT
pIC50: −log10 of the molar value.

| Compound | pIC50 |
| --- | --- |
| Cc1c(-c2ccncc2)n[nH]c1NC(=O)CCc1ccc(C#N)c(F)c1 | > 6.00 |
| Cc1c(-c2ccncc2)n[nH]c1NC(=O)CCc1ccccc1 | 5.00 to 6.00 |
| Cc1c(NC(=O)COc2ccc(Cl)cc2)cnn1-c1ccncc1 | 5.00 to 6.00 |
| Cc1c(-c2ccncc2)n[nH]c1NC(=O)CCc1cnc(Cl)nc1 | > 6.00 |
| O=C1N(Cc2ccc(Cl)cc2)CCN1c1cnn(-c2ccncc2)c1 | 5.00 to 6.00 |
| Cc1c(-c2ccncc2)n[nH]c1NC(=O)CCc1ccc(Cl)cn1 | 5.00 to 6.00 |

GET /value?item= Cc1c(NC(=O)C(O)Cc2ccc(Cl)cc2)cnn1-c1ccncc1 (racemic) &field=pIC50 returns 5.00 to 6.00

Noted for Cc1c(-c2ccncc2)n[nH]c1NC(=S)CCc1ccc(Cl)cc1 : its pIC50 reads > 6.00

Briefly, pIC50 measured for N#Cc1c(F)cc(CC2CCN(c3cc(-c4ccncc4)n[nH]3)C2=O)cc1F (stereo not drawn) : > 6.00

Entry under test: Cc1c(-c2ccncc2)n[nH]c1N(C(=O)CCc1ccc(Cl)cc1)C(=O)CCC(C)C . Its pIC50 was 5.00 to 6.00

O=C(CCc1cc(F)c(Cl)c(F)c1)Nc1cnn(-c2ccncc2)c1 yielded pIC50 of > 6.00

What the record says about Cn1c(NC(=O)CCc2ccc(Cl)cc2)cnc1-c1ccncc1 : pIC50 is > 6.00

Lookup result for Cc1c(NC(=O)CCc2cc(F)c(F)c(F)c2)cnn1-c1ccncc1 ; measured pIC50: > 6.00

Query N#Cc1c(F)cc(CCC(=O)Nc2cc(-c3ccncc3)n[nH]2)cc1F yields pIC50 of > 6.00

Looking up Cc1c(-c2ccncc2)n[nH]c1NC(=O)/C(F)=C(\F)c1ccc(Cl)cc1 , I see its pIC50 listed as 5.00 to 6.00

Lab note: measured pIC50 of Cc1c(-c2ccncc2)n[nH]c1N(C(=O)CCc1ccc(Cl)cc1)C(=O)CCc1ccccc1Cl was > 6.00

Form: compound = Cc1c(-c2ccncc2)n[nH]c1NC(=O)CCc1ccc(Cl)c(F)c1 ; pIC50 = > 6.00

The compound listed as Cc1c(-c2ccncc2)n[nH]c1NC(=O)C(F)Cc1ccc(C#N)c(F)c1 (racemic) shows pIC50 equal to 5.00 to 6.00

* * *

# Assay system: human SARM1(50-724) (Homo sapiens, UniProt Q6SZW1)
# Construct: 40 nM human SARM1(50-724)
# Experimental protocol: SARM1 NADase biochemical assay (HPLC of NAD and NAM)
# Conditions: 40 nM human SARM1(50-724), 0.3 mM NMN, 20 μM NAD, 60 minutes room temperature; dose-response from 100 μM, 1:3 dilution
# Protocol: Each reaction was run at a volume of 20 μL containing 50 μM compound (dissolved in DMSO; final concentration of DMSO is 1% v/v), 40 nM human SARM1(50-724), 0.3 mM NMN, 20 μM NAD, 1 mM TCEP, 25 mM HEPES pH 7.4, 10 mM KCl and 10 mM MgCl2. The reaction was incubated at room temperature for 60 minutes and quenched with 20 μL of 0.4% formic acid. […] Peak areas of NAD and NAM were determined using OpenLAB CDS (Chem Station edition) software. […]
Reported metric: IC50

| Chemical structure | Assay system | IC50 |
| --- | --- | --- |
| Cc1c(-c2ccncc2)n[nH]c1NC(=O)CCc1cc(F)c(C#N)c(F)c1 | human SARM1(50-724) (Homo sapiens, UniProt Q6SZW1) | < 1000 nM |

Recorded result, Cc1c(-c2ccncc2)n[nH]c1NC(=O)CCc1cc(F)c(Cl)c(F)c1 , IC50: < 1000 nM

Recorded result, CCc1c(-c2ccncc2)n[nH]c1NC(=O)CCc1ccc(Cl)cc1 , IC50: < 1000 nM

Form field IC50, entry Cc1c(-c2ccncc2)n[nH]c1NC(=O)CCc1ccc(Cl)cc1 : < 1000 nM

For record Cc1cnccc1-n1cc(NC(=O)CCc2ccc(Cl)cc2)cn1 the listed IC50 is 1000 to 10000 nM

The molecule identified as Cc1c(-c2ccncc2)n[nH]c1N(C(=O)CCc1ccc(Cl)cc1)S(C)(=O)=O registered its IC50 at < 1000 nM

IC50 in this record for O=C(CCc1ccc(F)cc1)Nc1cnn(-c2ccncc2)c1 : 1000 to 10000 nM

The molecule identified as COc1cnccc1-c1cc(NC(=O)CCc2ccc(Cl)cc2)[nH]n1 registered its IC50 at 1000 to 10000 nM

Field IC50 (entry Cc1c(-c2ccncc2)n[nH]c1NC(=O)CCc1ccc2c(c1)OCO2 ) reads < 1000 nM

Sure, the documented IC50 for O=C(CCc1ccc2c(c1)OCO2)Nc1cc(-c2ccncc2)n[nH]1 is 1000 to 10000 nM

response.value for Cc1c(-c2ccncc2)n[nH]c1NC(=O)CCc1cc(Cl)no1 (field: IC50) = < 1000 nM

// field: IC50; key: Cc1cnccc1-c1n[nH]c(NC(=O)CCc2cc(F)c(C#N)c(F)c2)c1C ; value = 1000 to 10000 nM

IC50 reported for this molecule O=C(CCc1cc(F)c(Cl)c(F)c1)Nc1cnn(-c2ccncc2)c1Br : < 1000 nM

Notebook: Cc1c(-c2ccncc2)n[nH]c1NC(=O)OCc1ccc(Cl)cc1 , IC50 read as < 1000 nM

Summary for this molecule, Cn1c(-c2ccncc2)cnc1NC(=O)CCc1ccc(Cl)cc1 : IC50 is 1000 to 10000 nM

The recorded IC50 for Cc1c(NC(=S)CCc2ccc(Cl)cc2)cnn1-c1ccncc1 is 1000 to 10000 nM

The recorded IC50 for entry O=C(CCc1ccc(Cl)cc1)Nc1nc(-c2ccncc2)c[nH]1 equals 1000 to 10000 nM

For this molecule ( Cc1cc(CCC(=O)Nc2[nH]nc(-c3ccncc3)c2C)ccc1Cl ), measured IC50 is < 1000 nM

So, Cc1c(-c2ccncc2)n[nH]c1NC(=O)CCc1ccc(Cl)c(Cl)c1 ? Its IC50 was < 1000 nM

* * *

# Assay system: human SARM1(50-724) (Homo sapiens)
# Sequence (Q6SZW1 50-724): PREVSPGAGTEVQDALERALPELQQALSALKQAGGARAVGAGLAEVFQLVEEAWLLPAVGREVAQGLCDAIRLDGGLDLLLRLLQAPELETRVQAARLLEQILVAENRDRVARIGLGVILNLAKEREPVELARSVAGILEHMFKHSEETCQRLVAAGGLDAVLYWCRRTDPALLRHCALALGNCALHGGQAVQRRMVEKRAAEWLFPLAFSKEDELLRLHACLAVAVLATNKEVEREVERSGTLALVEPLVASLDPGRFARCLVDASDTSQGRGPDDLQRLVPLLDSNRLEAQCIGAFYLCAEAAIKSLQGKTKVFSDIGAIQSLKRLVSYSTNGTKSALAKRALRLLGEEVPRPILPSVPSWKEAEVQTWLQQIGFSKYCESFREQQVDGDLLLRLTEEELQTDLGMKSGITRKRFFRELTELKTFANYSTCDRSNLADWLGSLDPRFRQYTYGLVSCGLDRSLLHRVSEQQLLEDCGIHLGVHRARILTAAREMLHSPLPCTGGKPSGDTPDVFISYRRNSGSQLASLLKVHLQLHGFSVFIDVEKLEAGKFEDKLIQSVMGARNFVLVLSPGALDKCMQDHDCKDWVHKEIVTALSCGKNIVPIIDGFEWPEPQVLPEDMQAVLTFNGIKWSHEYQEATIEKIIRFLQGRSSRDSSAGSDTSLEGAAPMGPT
Reported metric: IC50

| Molecule | IC50 |
| --- | --- |
| CCC(=O)N(C(=O)CCc1ccc(Cl)cc1)c1[nH]nc(-c2ccncc2)c1C | 1000 to 10000 nM |
| O=C(CCc1ccc(Cl)cc1)Nc1cc(-c2ccncc2)n[nH]1 | < 1000 nM |
| O=C(CCc1cc(F)c(F)c(F)c1)Nc1[nH]nc(-c2ccncc2)c1CO | < 1000 nM |

So, Cc1c(-c2ccncc2)n[nH]c1NC(=O)CCc1ccc(Cl)s1 ? Its IC50 was < 1000 nM

Entry O=C1CC(Cc2ccc(Cl)cc2)C(=O)N1c1cc(-c2ccncc2)n[nH]1 (racemic) ; IC50 = < 1000 nM

The recorded IC50 for entry Cc1c(-c2ccncc2)n[nH]c1NC(=O)CCc1cc(Cl)cc(Cl)c1 equals 1000 to 10000 nM

The recorded IC50 for O=C(CCc1ccc(Cl)cc1)Nc1cnn(-c2ccncc2)c1C(F)(F)F is < 1000 nM

response.value for Cc1ccccc1CCC(=O)Nc1[nH]nc(-c2ccncc2)c1C (field: IC50) = 1000 to 10000 nM

For record Cc1c(-c2ccncc2)n[nH]c1NC(=O)CCc1ccc2ccccc2c1 the listed IC50 is 1000 to 10000 nM

The molecule listed as Cc1c(-c2ccncc2)n[nH]c1NC(=O)CC1CCc2cc(Cl)ccc21 (centres unmarked) has a reported IC50 of < 1000 nM

Lookup result for Cc1c(-c2ccncc2)n[nH]c1NC(=O)NCc1ccc(F)cc1 ; measured IC50: < 1000 nM

Documented IC50 of Cc1c(NC(=O)CCc2cc(F)c(Cl)c(F)c2)cnn1-c1ccncc1 : < 1000 nM

Please fill in: IC50 reported for N#Cc1ccc(CCC(=O)Nc2cnn(-c3ccncc3)c2Cl)cc1F = < 1000 nM

Query CCc1c(-c2ccncc2)n[nH]c1NC(=O)CCc1cc(F)c(C#N)c(F)c1 yields IC50 of < 1000 nM
